Reference source for all entries: PubChem BioAssay (NCATS)

System: CP315
Test: qHTS profiling for inhibitors of Plasmodium falciparum proliferation (AID 504749); note: nearly all actives have a fitted effect of over 60% in size
Conditions: P. falciparum in erythrocytes, SYBR Green DNA, 72 h; series mostly up to 28.7 µM
Inconclusive results are not listed. Calls of active or inactive are those of the source. Calls come from the whole dose curve; as a rule, active = well fitted inhibition curve with a large enough effect; inconclusive = small, poorly fitted or top-dose-only effect; inactive = flat fitted curve, though single readings scatter.
Select the matching outcome among label 1 for active, label 0 for inactive

Please indicate how the test categorized CC(C)=CC1C(C(=O)OCc2cccc(Oc3ccccc3)c2)C1(C)C (stereo unspecified) .
label 0

What about NCC(O)c1ccc(O)cc1 (stereo unspecified) ?
label 0

What about CCOC(=O)C1(c2ccccc2)CCN(CCC(C#N)(c2ccccc2)c2ccccc2)CC1 ?
label 1

What about CC[N+](CC)(CC)CC ?
label 0

What about CC(CCc1ccccc1)NC(C)C(O)c1ccc(O)cc1 (stereo unspecified) ?
label 0

What about CCCN1CCC[C@@H]2Cc3[nH]ncc3C[C@H]21 ?
label 0
